Biological target: human A2B receptors (hA2B) (Homo sapiens)
Construct: expressed in transfected cells; host or cells: HEK-293 (HEK-A2B, G418-selected)
Sequence (P29275 1-332): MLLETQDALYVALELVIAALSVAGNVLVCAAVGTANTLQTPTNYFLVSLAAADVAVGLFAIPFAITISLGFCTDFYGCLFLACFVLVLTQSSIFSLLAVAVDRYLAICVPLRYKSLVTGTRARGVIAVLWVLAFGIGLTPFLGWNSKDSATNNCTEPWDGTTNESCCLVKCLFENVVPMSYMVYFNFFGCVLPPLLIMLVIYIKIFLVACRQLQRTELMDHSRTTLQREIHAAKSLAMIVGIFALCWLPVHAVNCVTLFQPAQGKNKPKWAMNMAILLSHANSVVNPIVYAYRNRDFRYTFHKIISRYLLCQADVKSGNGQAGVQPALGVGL
Test: Radioligand binding ([125I]ABOPX / [3H]ZM241385) at human A2B receptors expressed in HEK-293 cells
Settings: read-out: Ki value at human A2B receptors
experimental endpoint: pKi
Give bare numbers, as −log10 of the molar value.

CCCn1c(=O)c2[nH]c(-c3ccc(OCC(=O)NN4C(=O)CC[C@H](NC(=O)C(F)(F)F)C4=O)cc3)nc2n(CCC)c1=O | 7.89
CCCn1c(=O)c2[nH]c(-c3ccc(OCC(=O)NN4C(=O)[C@H]5CC=CC[C@H]5C4=O)cc3)nc2n(CCC)c1=O | 8.00
CCCn1c(=O)c2[nH]c(-c3ccc(OCC(=O)NNC(=O)CNC(=O)CNC(=O)OCc4ccccc4)cc3)nc2n(CCC)c1=O | 7.96

**Q:** Reported pKi for CCCn1c(=O)c2[nH]c(-c3ccc(OCC(=O)NNC(=O)C4=C(C(=O)O)CCCC4)cc3)nc2n(CCC)c1=O : what is it?
**A:** 7.77
